TESTED_TARGET: Coagulation factor X (Homo sapiens, UniProt P00742)
Sequence (P00742 41-179 limits assumed): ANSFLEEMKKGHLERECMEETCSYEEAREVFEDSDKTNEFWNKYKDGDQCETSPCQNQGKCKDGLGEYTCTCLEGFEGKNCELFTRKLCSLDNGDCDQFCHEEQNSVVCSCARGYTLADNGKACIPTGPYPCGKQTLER
Sequence (P00742 235-488 limits assumed): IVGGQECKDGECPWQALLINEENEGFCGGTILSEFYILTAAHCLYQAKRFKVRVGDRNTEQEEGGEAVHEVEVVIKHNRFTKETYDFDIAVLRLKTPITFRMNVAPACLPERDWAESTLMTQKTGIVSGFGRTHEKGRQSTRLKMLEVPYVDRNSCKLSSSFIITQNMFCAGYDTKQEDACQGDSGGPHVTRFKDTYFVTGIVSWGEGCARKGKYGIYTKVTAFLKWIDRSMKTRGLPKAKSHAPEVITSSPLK
ASSAY_PROCEDURE: In vitro inhibitory activity against human enzyme Coagulation factor X
Can you tell me log10 IC50 for the items I'm about to list?
Record value = log10 of IC50 given in nM.

N=C(N)N1CCC[C@H](NC(=O)CN2CCCC[C@H](NS(=O)(=O)Cc3ccccc3)C2=O)C1O (some centres undefined)	1.31
COc1cccc2c1CC[C@H](NS(=O)(=O)Cc1ccccc1)C(=O)N2CC(=O)N[C@H]1CCCN(C(=N)N)C1O (some centres undefined)	0.93
COc1ccc2c(c1)CC[C@H](NS(=O)(=O)c1ccc3ccccc3c1)C(=O)N2CC(=O)N[C@H]1CCCN(C(=N)N)C1O (some centres undefined)	0.56
N=C(N)N1CCC[C@H](NC(=O)CN2C(=O)[C@@H](NS(=O)(=O)Cc3ccccc3)CCc3ccccc32)C1O (some centres undefined)	0.86
N=C(N)N1CCC[C@H](NC(=O)CN2C(=O)[C@H](NS(=O)(=O)Cc3ccccc3)CCc3ccccc32)C1O (some centres undefined)	1.69
COc1ccc2c(c1)N(CC(=O)N[C@H]1CCCN(C(=N)N)C1O)C(=O)[C@@H](NS(=O)(=O)Cc1ccccc1)CC2 (some centres undefined)	1.46
COc1ccc2c(c1)CC[C@H](NS(=O)(=O)Cc1ccccc1)C(=O)N2CC(=O)N[C@H]1CCCN(C(=N)N)C1O (some centres undefined)	0.86

Bench note: what log10 IC50 did COc1ccc2c(c1)CC[C@H](NS(=O)(=O)CC1CCCCC1)C(=O)N2CC(=O)N[C@H]1CCCN(C(=N)N)C1O (some centres undefined) show?
0.28

---

TESTED_TARGET: Serine protease 1 (Homo sapiens)
Sequence (P07477 whole entry): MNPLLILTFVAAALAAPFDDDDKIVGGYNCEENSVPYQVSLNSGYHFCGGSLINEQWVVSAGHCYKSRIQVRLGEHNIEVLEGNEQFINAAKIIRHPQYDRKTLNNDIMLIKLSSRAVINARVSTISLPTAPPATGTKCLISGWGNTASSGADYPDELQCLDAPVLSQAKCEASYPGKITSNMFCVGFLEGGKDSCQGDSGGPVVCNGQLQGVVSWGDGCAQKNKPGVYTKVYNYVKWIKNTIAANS
ASSAY_PROCEDURE: In vitro evaluation of inhibition of cleavage of the chromogenic substrate by human enzyme trypsin
ENDPOINT: pIC50
Give bare numbers, as −log10 of the molar value.

COc1cccc2c1CC[C@H](NS(=O)(=O)Cc1ccccc1)C(=O)N2CC(=O)N[C@H]1CCCN(C(=N)N)C1O (some centres undefined)	7.11
COc1ccc2c(c1)N(CC(=O)N[C@H]1CCCN(C(=N)N)C1O)C(=O)[C@@H](NS(=O)(=O)Cc1ccccc1)CC2 (some centres undefined)	7.40
COc1ccc2c(c1)CC[C@H](NS(=O)(=O)Cc1ccccc1)C(=O)N2CC(=O)N[C@H]1CCCN(C(=N)N)C1O (some centres undefined)	6.96

In the following, a different molecule is considered.
Bench note: what pIC50 did COc1ccc2c(c1)CC[C@H](NS(=O)(=O)c1ccc3ccccc3c1)C(=O)N2CC(=O)N[C@H]1CCCN(C(=N)N)C1O (some centres undefined) show?
7.57

---

Can you tell me Ratio for the items I'm about to list?
ASSAY_PROCEDURE: Ratio against factor Xa to prothrombinase
Answers are plain numbers.

Below are worked cases with known answers.
COc1cccc2c1CC[C@H](NS(=O)(=O)Cc1ccccc1)C(=O)N2CC(=O)N[C@H]1CCCN(C(=N)N)C1O (stereo partly specified)	3.1
COc1ccc2c(c1)N(CC(=O)N[C@H]1CCCN(C(=N)N)C1O)C(=O)[C@@H](NS(=O)(=O)Cc1ccccc1)CC2 (stereo partly specified)	2.2
COc1ccc2c(c1)CC[C@H](NS(=O)(=O)c1ccc3ccccc3c1)C(=O)N2CC(=O)N[C@H]1CCCN(C(=N)N)C1O (stereo partly specified)	5.3
N=C(N)N1CCC[C@H](NC(=O)CN2C(=O)[C@@H](NS(=O)(=O)Cc3ccccc3)CCc3ccccc32)C1O (stereo partly specified)	2.3
COc1ccc2c(c1)CC[C@H](NS(=O)(=O)Cc1ccccc1)C(=O)N2CC(=O)N[C@H]1CCCN(C(=N)N)C1O (stereo partly specified)	4.8

Bench note: what Ratio did COc1ccc2c(c1)CC[C@H](NS(=O)(=O)CC1CCCCC1)C(=O)N2CC(=O)N[C@H]1CCCN(C(=N)N)C1O (stereo partly specified) show?
5.2

---

Can you tell me IC50 for the items I'm about to list?
TESTED_TARGET: Coagulation factor X (Homo sapiens, UniProt P00742)
ASSAY_PROCEDURE: In vitro inhibitory activity against human prothrombinase
Give bare numbers, in µM.

Below are worked cases with known answers.
COc1cccc2c1CC[C@H](NS(=O)(=O)Cc1ccccc1)C(=O)N2CC(=O)N[C@H]1CCCN(C(=N)N)C1O (stereo not given in full)	0.0267
COc1ccc2c(c1)CC[C@H](NS(=O)(=O)Cc1ccccc1)C(=O)N2CC(=O)N[C@H]1CCCN(C(=N)N)C1O (stereo not given in full)	0.0349
COc1ccc2c(c1)CC[C@H](NS(=O)(=O)c1ccc3ccccc3c1)C(=O)N2CC(=O)N[C@H]1CCCN(C(=N)N)C1O (stereo not given in full)	0.0191

For every record below, what is its IC50?
1. COc1ccc2c(c1)N(CC(=O)N[C@H]1CCCN(C(=N)N)C1O)C(=O)[C@@H](NS(=O)(=O)Cc1ccccc1)CC2 (stereo not given in full)
2. N=C(N)N1CCC[C@H](NC(=O)CN2C(=O)[C@@H](NS(=O)(=O)Cc3ccccc3)CCc3ccccc32)C1O (stereo not given in full)

1. 0.0643
2. 0.0171

---

TESTED_TARGET: Prothrombin (Homo sapiens, UniProt P00734)
ASSAY_PROCEDURE: In vitro inhibitory activity against human enzyme thrombin
ENDPOINT: pIC50
Give bare numbers, as −log10 of the molar value.

Below are worked cases with known answers.
COc1cccc2c1CC[C@H](NS(=O)(=O)Cc1ccccc1)C(=O)N2CC(=O)N[C@H]1CCCN(C(=N)N)C1O (some centres not stated)	6.63
N=C(N)N1CCC[C@H](NC(=O)CN2C(=O)[C@@H](NS(=O)(=O)Cc3ccccc3)CCc3ccccc32)C1O (some centres not stated)	6.75
N=C(N)N1CCC[C@H](NC(=O)CN2C(=O)C(NS(=O)(=O)Cc3ccccc3)Cc3ccccc32)C1O (some centres not stated)	7.75
N=C(N)N1CCC[C@H](NC(=O)CN2C(=O)[C@H](NS(=O)(=O)Cc3ccccc3)CCc3ccccc32)C1O (some centres not stated)	6.72

Bench note: what pIC50 did COc1ccc2c(c1)CC[C@H](NS(=O)(=O)CC1CCCCC1)C(=O)N2CC(=O)N[C@H]1CCCN(C(=N)N)C1O (some centres not stated) show?
6.08

---

TESTED_TARGET: UniProtKB P07477
ASSAY_PROCEDURE: In vitro inhibitory activity against human enzyme trypsin
ENDPOINT: pIC50
Give bare numbers, as −log10 of the molar value.

N=C(N)N1CCC[C@H](NC(=O)CN2CCCC[C@H](NS(=O)(=O)Cc3ccccc3)C2=O)C1O (stereo not given in full)	7.12
N=C(N)N1CCC[C@H](NC(=O)CN2C(=O)C(NS(=O)(=O)Cc3ccccc3)Cc3ccccc32)C1O (stereo not given in full)	6.54
N=C(N)N1CCC[C@H](NC(=O)CN2C(=O)[C@@H](NS(=O)(=O)Cc3ccccc3)CCc3ccccc32)C1O (stereo not given in full)	7.59

For every record below, what is its pIC50?
1. N=C(N)N1CCC[C@H](NC(=O)CN2C(=O)[C@H](NS(=O)(=O)Cc3ccccc3)CCc3ccccc32)C1O (stereo not given in full)
2. COc1ccc2c(c1)CC[C@H](NS(=O)(=O)CC1CCCCC1)C(=O)N2CC(=O)N[C@H]1CCCN(C(=N)N)C1O (stereo not given in full)

1. 6.87
2. 8.82

---

TESTED_TARGET: Coagulation factor X (Homo sapiens, UniProt P00742)
ASSAY_PROCEDURE: In vitro inhibitory activity against prothrombinase
ENDPOINT: IC50 (nM)
Answers are plain numbers, in nM.

Bench note: what IC50 did COc1ccc2c(c1)CC[C@H](NS(=O)(=O)CC1CCCCC1)C(=O)N2CC(=O)N[C@H]1CCCN(C(=N)N)C1O (stereo partly specified) show?
9.9
